Entries and their measured growth inhibition follow.
experiment: NCI Yeast Anticancer Drug Screen. Data for the rad50 strain (AID 155);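 note: 0% = growth of vehicle-only cultures of the same strain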; conditions: S. cerevisiae rad50 strain growth inhibition; at 50.0 µM; active compounds read high
The panel holds about 79,000 compounds, 15% with a hit somewhere; the sample as a whole holds those more often.
Kindly provide the numeric value in % only, without the unit symbol.

1) CN=S(=O)(OCCCCCOS(=O)(=NC)c1ccc(C)cc1)c1ccc(C)cc1 (stereo not drawn) | 3.75
2) Nc1nc(N)nc(N2CCCCC2)n1 | -23.3
3) COc1ccc2c(ccc[n+]2C)c1 | 19.6
4) CCOC(=O)CNC | 3.55
5) Nc1ccn(C2OC(CO)C(O)C2F)c(=O)n1 (stereo not drawn) | 12.4

*Q* Reported growth inhibition, compound `Cc1cc(NC(=O)c2ccccc2)c(Cl)cc1N` : ____
*A* -26.4

*Q* Item under review: `C=CCOc1ccc(Cl)cc1Cl` . Reported growth inhibition?
*A* 1.65

*Q* So what's the measured growth inhibition for this one? `C=CCc1cc(OC)c(O)c(OC)c1`
*A* 1.95

*Q* Which value of growth inhibition has been reported for `Cc1nc(O)cc(=O)[nH]1` in the records?
*A* 17.7

*Q* Which growth inhibition is listed for `C1Cc2onc(-c3noc4c3CCC4)c2C1` ?
*A* -11.2

*Q* Any idea what growth inhibition was measured for `COc1nc2ccccc2s1` ?
*A* 18.6

*Q* Sample `N#Cc1ccc(OC(=O)Nc2cc(Cl)cc(Cl)c2)cc1` — what was its growth inhibition?
*A* -6.5

*Q* I have this compound here, `CC(=O)Oc1c(Cl)cccc1-c1ccccc1` , and I need its recorded growth inhibition.
*A* 35.3

*Q* Given `Cn1c(=O)c2[nH]c(CC(=O)O)nc2n(C)c1=O` , state its recorded growth inhibition.
*A* 29.5

###

assay: NCI Yeast Anticancer Drug Screen. Data for the cln2 rad14 strain (AID 165);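 note: 0% = growth equal to vehicle treated cultures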; details: S. cerevisiae cln2 rad14 strain, at 50.0 µM, active compounds read high
The panel holds about 79,000 compounds, 15% with a hit somewhere; the sample as a whole holds those more often.
Listed here: items and their measured growth inhibition.
Give just the number in %; leave the unit off.

Answered cases to consult:
1) O=C(c1ccc(Cl)cc1)N1CCCCC1 | -0.65
2) O=C1CSc2ccccc2N1 | -12.7
3) NNc1ncccn1 | -3.35
4) NC(=O)NCCO | -18.6
5) Cc1ccc2[nH]c3ccccc3c2c1 | -14.8
6) CC(CCC#N)(CCC#N)C(=O)c1ccccc1 | -38.3

*Q* growth inhibition for `CC(=O)NNC(=S)N/C=C/c1c(C)ccc([N+](=O)[O-])c1[N+](=O)[O-]` ?
*A* -31.9

*Q* Which value of growth inhibition has been reported for CC1CCC(C)(C)c2ccccc21 (centres undefined) in the records?
*A* -2.5

*Q* Quick check: growth inhibition of `CN(C)CCOC(=O)Nc1ccc(Cc2ccc(NC(=O)OCCN(C)C)cc2)cc1` ?
*A* 8.25

*Q* May I ask what growth inhibition has been recorded for `CCOS(=O)(=O)c1ccc([N+](=O)[O-])cc1` ?
*A* 5.15

*Q* Value lookup for growth inhibition; key = `CCCCOC(=O)c1ccccc1O`
*A* -3.05

*Q* # input molecule: `C=COC(=O)C(C)(C)C` ; wanted: its growth inhibition
*A* 21.4
